Data provenance: ChEMBL document CHEMBL4390705

System: K562
Experiment: Cytotoxicity against human K562 cells by MTT assay
Assay type: functional, cell-based
MEASURED_ATTRIBUTE: IC50 (µM)

1) CC(C)c1ccc(CO)c2ccc(C(=O)O)cc12: 12.9
2) Nc1cc(F)ccc1NC(=O)c1ccc(CNC(=O)/C=C/c2cccnc2)cc1: 1.34

----------
Tested on: CCRF-CEM
Experiment: Cytotoxicity against human CCRF-CEM cells by MTT assay
Format: functional, cell-based
pIC50: −log10 of the molar value.
MEASURED_ATTRIBUTE: pIC50

1. Nc1cc(F)ccc1NC(=O)c1ccc(CNC(=O)/C=C/c2cccnc2)cc1 [TUCIDINOSTAT]: 6.20
2. CC(C)c1ccc(CO)c2ccc(C(=O)O)cc12: 4.86
